# test description: Maximal plasma concentration in rats after 30 mg/kg oral dose
# Assay type: ADME, organism-based
# Parameters: dose 30 mg/kg, route oral
# condition summary: rat
For each record, write down the corresponding Cmax.
One number for each entry, in ng/mL.

Record excerpt, results attached:
COC(=O)N[C@@H](C(=O)N1CCC[C@H]1C(=O)NCc1ccc(C(=N)N)nc1)C(c1ccccc1)c1ccccc1 :: 14000
CS(=O)(=O)N[C@@H](C(=O)N1CCC[C@H]1C(=O)NCc1ccc(C(=N)N)s1)C(c1ccccc1)c1ccccc1.N=C(N)c1ccccc1 :: 1300

Give one value of Cmax per listed molecule.
1. N=C(N)c1cc(CNC(=O)[C@@H]2CCCN2C(=O)[C@H](NS(N)(=O)=O)C(c2ccccc2)c2ccccc2)cs1
2. COC(=O)N[C@@H](C(=O)N1CCC[C@H]1C(=O)NCc1cc(C(=N)N)cs1)C(c1ccccc1)c1ccccc1
3. N=C(N)c1ccc(CNC(=O)[C@@H]2CCCN2C(=O)[C@H](NS(N)(=O)=O)C(c2ccccc2)c2ccccc2)cc1F
4. N=C(N)c1ccc(CNC(=O)[C@@H]2CCCN2C(=O)[C@H](NS(N)(=O)=O)C(c2ccccc2)c2ccccc2)cc1
5. N=C(N)c1ccc(CNC(=O)[C@@H]2CCCN2C(=O)[C@H](NS(N)(=O)=O)C(c2ccccc2)c2ccccc2)o1

1. 500
2. 4600
3. 2400
4. 2800
5. 1000

====

# test description: Maximal plasma concentration in dogs after 5 mg/kg oral dose
# Assay type: ADME, organism-based, Canis lupus familiaris
# Parameters: dose 5 mg/kg, route oral
# condition summary: dog
quantity: Cmax (ng/mL)
Answers are plain numbers, in ng/mL.

So for N=C(N)c1ccc(CNC(=O)[C@@H]2CCCN2C(=O)[C@H](NCC(=O)O)C(c2ccccc2)c2ccccc2)s1 , the logged Cmax turned out to be 3800

====

List of pKi tested on Prothrombin (Homo sapiens).
Answers are plain numbers, as −log10 of the molar value.

N=C(N)c1ccc(CNC(=O)[C@@H]2CCCN2C(=O)[C@H](NS(N)(=O)=O)C(c2ccccc2)c2ccccc2)cc1F :: 11.10
COC(=O)N[C@@H](C(=O)N1CCC[C@H]1C(=O)NCc1csc(C(=N)N)c1)C(c1ccccc1)c1ccccc1 :: 9.22
COC(=O)N[C@@H](C(=O)N1CCC[C@H]1C(=O)NCc1cc(C(=N)N)cs1)C(c1ccccc1)c1ccccc1 :: 9.77

I have 3 compounds here; please give me pKi for each one.
1. N=C(N)c1ccc(CNC(=O)[C@@H]2CCCN2C(=O)[C@H](NS(N)(=O)=O)C(c2ccccc2)c2ccccc2)o1
2. CN(C(=O)C(NS(=O)(=O)c1ccc2ccccc2c1)c1ccc(C(=N)NN)cc1)C1CCCC1 (stereo unspecified)
3. COC(=O)N[C@@H](C(=O)N1CCC[C@H]1C(=O)NCc1ccc(C(=N)N)s1)C(c1ccccc1)c1ccccc1

1. 9.37
2. 9.40
3. 10.82

====

# test description: Area under curve (AUC) was measured after oral dosing at 30 mg/kg in rat
# Assay type: ADME, organism-based
# Design: dose 30 mg/kg, route oral
# condition summary: in vivo
// classify: if (AUC < 3000 ng·h/mL) true (1) else false (0)

Consider the compound N=C(N)c1ccc(CNC(=O)[C@@H]2CCCN2C(=O)[C@H](NS(N)(=O)=O)C(c2ccccc2)c2ccccc2)cc1F . Is its AUC strictly less than 3000 ng·h/mL? false (0)

Hello, I'm reviewing records and need to know if AUC of N=C(N)c1ccc(CNC(=O)[C@@H]2CCCN2C(=O)[C@H](NS(N)(=O)=O)C(c2ccccc2)c2ccccc2)s1 is below 3000 ng·h/mL. Could you check? false (0)

Below 3000 ng·h/mL on AUC? Entry N=C(N)c1ccc(CNC(=O)[C@@H]2CCCN2C(=O)[C@H](NCC(=O)O)C(c2ccccc2)c2ccccc2)cc1 true (1)

Is it true that AUC reported for N=C(N)c1ccc(CNC(=O)[C@@H]2CCCN2C(=O)[C@H](NS(N)(=O)=O)C(c2ccccc2)c2ccccc2)cc1 is less than 3000 ng·h/mL? false (0)

Item N=C(N)c1ccc(CNC(=O)[C@@H]2CCCN2C(=O)[C@H](NS(N)(=O)=O)C(c2ccccc2)c2ccccc2)o1 : AUC beneath 3000 ng·h/mL, strictly? true (1)

Does the reported AUC of the following compound sit strictly below 3000 ng·h/mL? COC(=O)N[C@@H](C(=O)N1CCC[C@H]1C(=O)NCc1ccc(C(=N)N)s1)C(c1ccccc1)c1ccccc1 false (0)

====

# test description: In vitro metabolic stability was determined using liver S9 fraction from dog at initial concentration of 20 uM
# Format: ADME, Canis lupus familiaris
# condition summary: read-out: Recovery
Rule: measured remaining at 20 µM below 90% gets 1; anything equal to or greater than 90% gets -1.

A record lists N=C(N)c1ccc(CNC(=O)[C@@H]2CCCN2C(=O)[C@H](NS(N)(=O)=O)C(c2ccccc2)c2ccccc2)s1 . Is its remaining at 20 µM below 90%? -1

Lab note: confirm whether the reported remaining at 20 µM for this molecule is below 90%, equality not counting. molecule: N=C(N)c1ccc(CNC(=O)[C@@H]2CCCN2C(=O)[C@H](NCC(=O)O)C(c2ccccc2)c2ccccc2)s1 -1

Hi there! Is remaining at 20 µM for N=C(N)c1ccc(CNC(=O)[C@@H]2CCCN2C(=O)[C@H](NS(N)(=O)=O)C(c2ccccc2)c2ccccc2)cc1 below 90%, do you know? -1

In plain terms, does COC(=O)N[C@@H](C(=O)N1CCC[C@H]1C(=O)NCc1csc(C(=N)N)c1)C(c1ccccc1)c1ccccc1 come in under 90% for remaining at 20 µM? 1

Is it true that remaining at 20 µM reported for N=C(N)c1ccc(CNC(=O)[C@@H]2CCCN2C(=O)[C@H](NCC(=O)O)C(c2ccccc2)c2ccccc2)cc1 is less than 90%? -1

Would you kindly verify if remaining at 20 µM of COC(=O)N[C@@H](C(=O)N1CCC[C@H]1C(=O)NCc1ccc(C(=N)N)cc1)C(c1ccccc1)c1ccccc1 is strictly less than 90%? 1

====

# test description: Area under curve (AUC) was determine after intravenous dosing at 10 mg/kg
# Format: ADME, organism-based
# Set-up: dose 10 mg/kg, route intravenous
# condition summary: in vivo
quantity: AUC (ng·h/mL)
Numbers only, in ng·h/mL.

Lab note: measured AUC of N=C(N)c1csc(CNC(=O)[C@@H]2CCCN2C(=O)[C@H](NCC(=O)O)C(c2ccccc2)c2ccccc2)n1 was 29100

====

# test description: Maximal plasma concentration in rats after 30 mg/kg oral dose
# Assay type: ADME, organism-based
# Set-up: dose 30 mg/kg, route oral
# condition summary: rat
Given measured Cmax, output T if it is greater than or equal to 4000 ng/mL and F if not.

Example results:
N=C(N)c1ccc(CNC(=O)[C@@H]2CCCN2C(=O)[C@H](NCC(=O)O)C(c2ccccc2)c2ccccc2)cc1 :: F
COC(=O)N[C@@H](C(=O)N1CCC[C@H]1C(=O)NCc1csc(C(=N)N)c1)C(c1ccccc1)c1ccccc1 :: T
CS(=O)(=O)N[C@@H](C(=O)N1CCC[C@H]1C(=O)NCc1ccc(C(=N)N)cc1)C(c1ccccc1)c1ccccc1 :: F
N=C(N)c1csc(CNC(=O)[C@@H]2CCCN2C(=O)[C@H](NS(N)(=O)=O)C(c2ccccc2)c2ccccc2)c1 :: F
N=C(N)c1ccc(CNC(=O)[C@@H]2CCCN2C(=O)[C@H](NS(N)(=O)=O)C(c2ccccc2)c2ccccc2)cn1 :: F

Would you say COC(=O)N[C@@H](C(=O)N1CCC[C@H]1C(=O)NCc1coc(C(=N)N)c1)C(c1ccccc1)c1ccccc1 shows Cmax at minimum 4000 ng/mL? T

Exam item: decide whether the reported Cmax for N=C(N)c1ccc(CNC(=O)[C@@H]2CCCN2C(=O)[C@H](NS(N)(=O)=O)C(c2ccccc2)c2ccccc2)c(F)c1 is at least 4000 ng/mL. F

====

# test description: Bioavailability in rat
# Format: ADME, organism-based
# condition summary: in vivo
Give measured bioavailability for each item. Keep answers brief.
Write the numeric value and follow it with the unit.

Reference set, count: 6
COC(=O)N[C@@H](C(=O)N1CCC[C@H]1C(=O)NCc1ccc(C(=N)N)cc1)C(c1ccccc1)c1ccccc1 :: 6%
N=C(N)c1ccc(CNC(=O)[C@@H]2CCCN2C(=O)[C@H](NCC(=O)O)C(c2ccccc2)c2ccccc2)s1 :: 43%
N=C(N)c1ccc(CNC(=O)[C@@H]2CCCN2C(=O)[C@H](NS(N)(=O)=O)C(c2ccccc2)c2ccccc2)cc1 :: 8%
COC(=O)N[C@@H](C(=O)N1CCC[C@H]1C(=O)NCc1csc(C(=N)N)c1)C(c1ccccc1)c1ccccc1 :: 7%
COC(=O)N[C@@H](C(=O)N1CCC[C@H]1C(=O)NCc1ccc(C(=N)N)s1)C(c1ccccc1)c1ccccc1 :: 8%
COC(=O)N[C@@H](C(=O)N1CCC[C@H]1C(=O)NCc1ccc(C(=N)N)nc1)C(c1ccccc1)c1ccccc1 :: 11%

Record bioavailability per entry; entries follow.
1. N=C(N)c1csc(CNC(=O)[C@@H]2CCCN2C(=O)[C@H](NCC(=O)O)C(c2ccccc2)c2ccccc2)n1
2. N=C(N)c1ccc(CNC(=O)[C@@H]2CCCN2C(=O)[C@H](NS(N)(=O)=O)C(c2ccccc2)c2ccccc2)s1

["21%", "11%"]

Source: ChEMBL document CHEMBL1144934
